- protocolDetails: Larval settlement bioassay, bryozoan larvae
- Type: in vivo, Bugula neritina
- setupConditions: Bugula neritina (bryozoan, in vivo, other: immersion of larvae in test solution in seawater); Bugula neritina larvae, 48 h; read-out: LC50 (concentration in which 50% of the test larvae population was killed)

{"molecule": "CC(=O)Oc1ccc(C(c2c[nH]c3ccccc23)c2c[nH]c3ccccc23)cc1 [Compound 9]", "LC50 at 48 h": "> 132 µM"}
{"molecule": "Oc1ccc(C(c2c[nH]c3ccccc23)c2c[nH]c3ccccc23)cc1 [Compound 8, 4-(di(1H-indol-3-yl)methyl) phenol]", "LC50 at 48 h": "> 148 µM"}
